Data origin: patent US6630462B2

- experimental target: cloned human μ opioid receptor (Homo sapiens)
- Sequence (P35372 whole entry): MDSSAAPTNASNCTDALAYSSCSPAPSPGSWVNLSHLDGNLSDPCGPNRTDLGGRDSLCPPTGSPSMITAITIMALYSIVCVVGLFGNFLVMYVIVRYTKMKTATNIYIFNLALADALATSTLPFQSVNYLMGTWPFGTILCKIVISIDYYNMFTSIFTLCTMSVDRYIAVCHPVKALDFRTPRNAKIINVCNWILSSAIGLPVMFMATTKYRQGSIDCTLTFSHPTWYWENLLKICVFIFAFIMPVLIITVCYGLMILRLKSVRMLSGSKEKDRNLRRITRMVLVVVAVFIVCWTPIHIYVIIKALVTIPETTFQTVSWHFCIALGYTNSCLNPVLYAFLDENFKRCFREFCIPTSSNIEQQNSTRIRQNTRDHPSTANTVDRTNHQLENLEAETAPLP
pKi: −log10 of the molar value.
quantity name: pKi

{"compound structure string": "C=CCN1C[C@H](C)N([C@H](c2ccc(C(=O)N(CC)CC)cc2)c2cccc(O)c2)C[C@H]1C", "test value": 7.02}

----------
- experimental target: cloned human κ opioid receptor (Homo sapiens, UniProt P41145)
- Sequence (P41145 whole entry): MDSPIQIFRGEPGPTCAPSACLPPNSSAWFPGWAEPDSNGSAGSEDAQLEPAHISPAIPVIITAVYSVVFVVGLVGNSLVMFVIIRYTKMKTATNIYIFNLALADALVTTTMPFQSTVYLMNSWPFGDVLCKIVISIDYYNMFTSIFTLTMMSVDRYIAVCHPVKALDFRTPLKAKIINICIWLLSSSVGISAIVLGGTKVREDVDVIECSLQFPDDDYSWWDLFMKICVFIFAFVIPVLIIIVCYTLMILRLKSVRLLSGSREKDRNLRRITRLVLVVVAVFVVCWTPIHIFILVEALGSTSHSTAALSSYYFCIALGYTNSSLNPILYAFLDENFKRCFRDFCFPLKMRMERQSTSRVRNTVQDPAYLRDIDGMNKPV
pKi: −log10 of the molar value.
quantity name: pKi

{"compound structure string": "C=CCN1C[C@H](C)N([C@H](c2ccc(C(=O)N(CC)CC)cc2)c2cccc(O)c2)C[C@H]1C", "quantity name": "pKi", "test value": 6.83}
